measurement.protocol: Absorption and fluorescence (photophysical properties) in solvent and solid state
Assay type: physicochemical
Would you kindly list αAIE = Φsolid/Φsolvent for each of these molecules?
Lab note: jot down the number only; don't add units.

Inquiry: Reported αAIE = Φsolid/Φsolvent, molecule COc1c(/C=C(\C#N)c2cc(C(F)(F)F)cc(C(F)(F)F)c2)ccc2cc(N(C)C)ccc12 [NAP-CF3] : ____
Reply text: 18.25

Inquiry: Reported αAIE = Φsolid/Φsolvent, molecule COc1c(/C=C(\C#N)c2ccc(-c3ccccc3)cc2)ccc2cc(N(C)C)ccc12 [NAP-Ph] : ____
Reply text: 14.89

Inquiry: Reported αAIE = Φsolid/Φsolvent, molecule COc1c(/C=C(\C#N)c2ccc(-c3ccncc3)cc2)ccc2cc(N(C)C)ccc12 [NAP-Py] : ____
Reply text: 14.47

Inquiry: Reported αAIE = Φsolid/Φsolvent, molecule COc1c(/C=C(\C#N)c2ccc(Br)cc2)ccc2cc(N(C)C)ccc12 [NAP-Br] : ____
Reply text: 9.00

* * *

Would you kindly list Stokes shift for each of these molecules?
measurement.protocol: Absorption and fluorescence (photophysical properties) in solvent and solid state
Format: physicochemical
study.conditions: THF or CH3CN (CH3CN for NAP-Py^+)
Your answer should be a plain number; it is taken to be in nm.

Inquiry: Reported Stokes shift, molecule "COc1c(/C=C(\C#N)c2ccc(Br)cc2)ccc2cc(N(C)C)ccc12" : ____
Reply text: 116

Inquiry: Reported Stokes shift, molecule "COc1c(/C=C(\C#N)c2ccc(-c3ccccc3)cc2)ccc2cc(N(C)C)ccc12" : ____
Reply text: 114

Inquiry: Reported Stokes shift, molecule "COc1c(/C=C(\C#N)c2cc(C(F)(F)F)cc(C(F)(F)F)c2)ccc2cc(N(C)C)ccc12" : ____
Reply text: 135

Inquiry: Reported Stokes shift, molecule "COc1c(/C=C(\C#N)c2ccc(-c3ccncc3)cc2)ccc2cc(N(C)C)ccc12" : ____
Reply text: 128

* * *

Would you kindly list λem max for each of these molecules?
measurement.protocol: Absorption and fluorescence (photophysical properties) in solvent and solid state
Type: physicochemical
study.conditions: THF or CH3CN (CH3CN for NAP-Py^+)
Your answer should be a plain number; it is taken to be in nm.

Inquiry: Reported λem max, molecule COc1c(/C=C(\C#N)c2cc(C(F)(F)F)cc(C(F)(F)F)c2)ccc2cc(N(C)C)ccc12 [NAP-CF3] : ____
Reply text: 560

Inquiry: Reported λem max, molecule COc1c(/C=C(\C#N)c2ccc(-c3ccncc3)cc2)ccc2cc(N(C)C)ccc12 [NAP-Py] : ____
Reply text: 541

Inquiry: Reported λem max, molecule COc1c(/C=C(\C#N)c2ccc(Br)cc2)ccc2cc(N(C)C)ccc12 [NAP-Br] : ____
Reply text: 525

Inquiry: Reported λem max, molecule COc1c(/C=C(\C#N)c2ccc(-c3ccccc3)cc2)ccc2cc(N(C)C)ccc12 [NAP-Ph] : ____
Reply text: 523

* * *

measurement.protocol: Absorption and fluorescence (photophysical properties) in solvent and solid state
Type: physicochemical
study.conditions: THF or CH3CN (CH3CN for NAP-Py^+)
property.name: λabs max (nm)
Your answer should be a plain number; it is taken to be in nm.

Inquiry: Reported λabs max, compound COc1c(/C=C(\C#N)c2ccc(-c3ccncc3)cc2)ccc2cc(N(C)C)ccc12 [NAP-Py] : ____
Reply text: 413

Inquiry: Reported λabs max, compound COc1c(/C=C(\C#N)c2ccc(-c3ccccc3)cc2)ccc2cc(N(C)C)ccc12 [NAP-Ph] : ____
Reply text: 409

Inquiry: Reported λabs max, compound COc1c(/C=C(\C#N)c2cc(C(F)(F)F)cc(C(F)(F)F)c2)ccc2cc(N(C)C)ccc12 [NAP-CF3] : ____
Reply text: 425

Inquiry: Reported λabs max, compound COc1c(/C=C(\C#N)c2ccc(Br)cc2)ccc2cc(N(C)C)ccc12 [NAP-Br] : ____
Reply text: 409

Cited source: patent US11220629B2
